The origin of these recorded values is patent US5935954A.

Test system: L1210 mouse leukemia cells transformed with the pHaMDR1/A retrovirus carrying a MDR1 cDNA
method: cells
Assay type: cell-based
conditionDetails: Mus musculus, L1210, read-out: IC50 DXR Alone, Date 4/21/95; doxorubicin alone
property: pIC50
pIC50 (log units): -log10 of the concentration in mol/L.

So, COc1cccc2c1C(=O)c1c(O)c3c(c(O)c1C2=O)C[C@@](O)(C(=O)CO)C[C@@H]3O[C@H]1C[C@H](N)[C@H](O)[C@H](C)O1 [DXR, doxorubicin, reference compound] ? Its pIC50 was 5.68

----------
system: FKBP12 (Homo sapiens, UniProt P62942)
Sequence (P62942 whole entry, species assumed): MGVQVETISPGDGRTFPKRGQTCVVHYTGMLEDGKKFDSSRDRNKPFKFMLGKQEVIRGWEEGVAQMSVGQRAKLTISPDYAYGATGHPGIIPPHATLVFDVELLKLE
# pKi per entry
// pKi here means minus log10 of the molar concentration (mol/L)

Past entries and their recorded results:
CCC/C=C(\c1cncc([C@H](OC(=O)[C@@H]2CCCCN2C(=O)C(=O)c2ccco2)/C(C)=C/[C@H]2CC[C@H](O)CC2)c1)C1CCCCC1: 7.00
CCOCc1cc2ccccc2n1-c1cccc([C@H](OC(=O)[C@@H]2CCCCN2C(=O)C(=O)C2(O)CCOCC2)/C(C)=C/[C@H]2CC[C@H](O)CC2)c1 [Compound 65]: 6.31

Turning now to a further record.
For CCOc1ccccc1-c1cncc([C@@H](CCCc2ccccc2)OC(=O)[C@@H]2CCCCN2C(=O)C(=O)c2cc(OC)c(OC)c(OC)c2)c1 on FKBP12 (Homo sapiens, UniProt P62942), measured pKi was 9.40

----------
system: FKBP12 (Homo sapiens, UniProt P62942)
Please note: Ki exactly at 400 nM is NO. Only values below 400 nM get YES.

# count of solved cases: 3
CCOCc1cccc(COCC)c1-c1cncc([C@@H](CCN2CCOCC2)OC(=O)[C@@H]2CCCCN2C(=O)C(=O)C2(C)CCCCC2)c1: YES
CCCC/C=C(/c1cccnc1)c1cccc([C@H](CCN2CCOCC2)OC(=O)[C@@H]2CCCCN2C(=O)C(=O)c2cc(OC)c(OC)c(OC)c2)c1: YES
C=CCC/C=C(\c1ccc([C@H](CCN2CCOCC2)OC(=O)[C@@H]2CCCCN2C(=O)C(=O)C2(C)CCCCC2)s1)C1CCOCC1: YES

QUERY: Regarding C=CCC/C=C(/c1cccnc1)c1ccc([C@@H](OC(=O)[C@@H]2CCCCN2C(=O)C(=O)CC(C)C)/C(C)=C/C2CCN(C)CC2)s1 , kindly confirm whether its Ki is beneath 400 nM.
RESULT: YES

QUERY: Answer whether the molecule CCC/C=C(\c1cncc([C@@H](CCN2CCOCC2)OC(=O)[C@@H]2CCCCN2C(=O)C(=O)[C@@H]2C[C@@H](OCC)CN2C(C)=O)c1)C(C)C has Ki strictly less than 400 nM
RESULT: NO

QUERY: Consider CCCOc1ccc(OCCC)c(-c2cncc([C@H](CCCc3ccccc3)OC(=O)[C@@H]3CCCCN3C(=O)C(=O)c3cc(OC)c(OC)c(OC)c3)c2)c1 . Does its Ki lie strictly below 400 nM?
RESULT: NO

----------
System: L1210 mouse leukemia cells transformed with the pHaMDR1/A retrovirus carrying a MDR1 cDNA
method: cells
Assay type: cell-based
conditionDetails: Date 5/12/95; IC50 Dox / IC50 Dox+Inhibitor; 2.5 μM compound
Rule: MDR Ratio under 10 gives 0, otherwise 1.

COc1cc(C(=O)C(=O)N2CCCC[C@H]2C(=O)O[C@H](CCCc2ccccc2)c2cncc(-c3c(OC)cccc3OC)c2)cc(OC)c1OC [Compound 24]: 1
CCCc1ccc(CCC)n1-c1cccc([C@@H](CCN2CCOCC2)OC(=O)[C@@H]2CCCCN2C(=O)C(=O)[C@@H]2C[C@H](OCC)CC[C@H]2C)c1 [Compound 111]: 0
COCc1cccc(COC)c1-c1cncc([C@@H](OC(=O)[C@@H]2CCCCN2C(=O)C(=O)c2ccco2)/C(C)=C/[C@H]2CC[C@H](O)CC2)c1 [Compound 40]: 0

QUERY: Item CCCOc1ccc(OCCC)c(-c2cncc([C@@H](CCCc3ccccc3)OC(=O)[C@@H]3CCCCN3C(=O)C(=O)c3cc(OC)c(OC)c(OC)c3)c2)c1 [Compound 22] with MDR Ratio of 10 or above?
RESULT: 0

QUERY: Is it the case that CCC/C=C(\c1cccnc1)c1cccc([C@@H](CCN2CCOCC2)OC(=O)[C@@H]2CCCCN2C(=O)C(=O)c2cc(OC)c(OC)c(OC)c2)c1 [Compound 30] has MDR Ratio reaching or exceeding 10?
RESULT: 1

QUERY: I'd appreciate it if you could say whether CCOCc1cccc(COCC)c1-c1ccc([C@@H](CCN2CCOCC2)OC(=O)[C@@H]2CCCCN2C(=O)C(=O)C2(C)CCCCC2)s1 [Compound 79] has MDR Ratio at least equal to 10.
RESULT: 0
